Reference source: PubChem BioAssay (NCI)

System: 786-0 renal
Test Protocol: NCI tumour cell line growth inhibition, 48 h
Measured Attribute: TGI

// worked examples, TGI included
COc1cc2c(cc1OC)C1C=NC(C(=O)O)(C2)c2ccccc21 (centres undefined) | > 100 µM
CCOC(=O)C1C(=O)CC(O)(c2ccccc2)C(C(=O)OCC)C1c1ccc(OC)cc1 (centres undefined) | > 59.2 µM
Cn1cc(C2=C(c3ccc(OC[C@@H](O)CO)cc3)C(=O)NC2=O)c2ccccc21 | > 25 µM

Below: the item to evaluate.
For the molecule Cc1oc2nc(N(C)C)n3nnnc3c2c1C , what TGI is on record?
> 100 µM

----------
System: OVCAR-3 ovarian
Test Protocol: NCI tumour cell line growth inhibition, 48 h
Listed next: entries and their corresponding TGI.

NS(=O)(=O)c1ccc(-n2nc(-c3ccc(Br)cc3)ccc2=O)cc1 | > 10 µM
CCOP(=O)(OCC)/C(F)=C/c1ccccc1 | > 100 µM
CC(=O)OCC1OC(n2c(=S)[nH]c(-c3ccccc3)c(C#N)c2=O)C(OC(C)=O)C(OC(C)=O)C1OC(C)=O (configuration not stated) | > 100 µM
C/C(=N\NC(N)=S)c1ccc(C)cc1C | > 100 µM
N#Cc1c2c(c(Nc3ccc(F)cc3)n3c1nc1ccccc13)CCC2 | 18.5 µM

For the molecule CCC[C@H](C)[C@H]1NC(=O)[C@@H](NC(=O)[C@@H](CC(C)C)N(C)C(=O)C2CCCN2C(=O)[C@H](C)O)[C@@H](C)OC(=O)[C@H](CC(C)C)N(C)C(=O)[C@@H]2CCCN2C(=O)[C@H](CC(C)C)NC(=O)[C@@H](C)C(=O)[C@H](C(C)C)OC(=O)C[C@@H]1O (some centres not stated) , what TGI is on record?
0.0117 µM

For the molecule O=C(O)CNC(=O)c1ccc([As](=O)(O)O)cc1 , what TGI is on record?
> 100 µM

----------
Tested on: M19-MEL melanoma
Test Protocol: NCI tumour cell line growth inhibition, 48 h
Listed next: entries and their corresponding TGI.

// worked examples, TGI included
Cc1cc2cccc(Cl)c2nc1C(=O)c1ccccc1 | > 100 µM
O=C1CC[C@H]2CNC(=O)C[C@H]2C1 | > 100 µM
Cc1c(C(=O)/C=C/c2cccc3ccccc23)[n+](=O)c2ccccc2n1[O-] | 26.4 µM
COc1cc([C@@H]2c3cc4c(cc3[C@@H](NC(=O)c3cccc([N+](=O)[O-])c3)C3COC(=O)[C@@H]32)OCO4)cc(OC)c1O (stereo partly specified) | > 100 µM
CC1=CCCC(OC(N)=O)C1 (stereo unspecified) | > 100 µM

Below: the item to evaluate.
For the compound CCC1CCC2CCCC(C)N12 (stereo unspecified) , what TGI is on record?
> 100 µM

----------
Tested on: NCI-H522 lung
Test Protocol: NCI tumour cell line growth inhibition, 48 h
Measured Attribute: TGI

// worked examples, TGI included
O=[n+]1c(CBr)c(CBr)n([O-])c2ccccc21 | 3.17 µM
CC(C)c1c(P(=O)(c2ccccc2)c2ccccc2)n(C)c2ccccc12 | > 100 µM
O=c1cc(-c2ccc3c(c2)OCCO3)oc2cc(Cl)ccc12 | > 100 µM
N#Cc1c(OCCF)c2ccccc2n2c1nc1ccccc12 | > 100 µM
NC1(CCCCCCCCCCC(=O)O)CNCCNCCNCCNC1 | > 100 µM
COc1ccc(/C=C(/C(=O)O)c2cc(OC)c(OC)c(OC)c2)cc1 | 36.6 µM
CN1CCN(C(=S)N(C)C(=O)c2ccc(Cl)cc2)CC1 | > 100 µM
Fc1ccc(-c2nn(-c3ccccc3)cc2-c2nc3ccccc3o2)cc1 | 16.8 µM
CC(C)(CO)N1C(=O)c2ccccc2C1(O)c1ccc(Cl)cc1 (stereo unspecified) | > 100 µM
O=C(O)/C=C/C(=O)Nc1ncn[nH]1 | > 100 µM

Below: the item to evaluate.
Request body: readout TGI, system NCI-H522 lung, query CNC(=O)c1cc(Oc2ccc3c(c2)sc2nc(-c4ccc(N)cc4)cn23)ccn1 . Return the value.
0.573 µM
